# MIC per entry for Staphylococcus aureus (Y-8)
Give the number; µg/mL is assumed, so skip it.

Look up and report MIC, with Staphylococcus aureus (Y-8) as system, for CC1(C)S[C@@H]2[C@H](NC(=O)C(C(=O)O)c3ccccc3)C(=O)N2[C@H]1C(=O)O (stereo partly drawn) [CB-PC, disodium-α-carboxybenzyl penicillin] 12.5

Look up and report MIC, with Staphylococcus aureus (Y-8) as system, for Cc1nnc(SCC2=C(C(=O)O)N3C(=O)C(NC(=O)[C@H](NC(=O)c4cnc5c(c4O)C(=O)CCC5)c4ccc(O)cc4)C3SC2)s1 (single isomer, unassigned) [Synthesis Example 2] 3.13

Look up and report MIC, with Staphylococcus aureus (Y-8) as system, for CC(=O)OCC1=C(C(=O)O)N2C(=O)C(NC(=O)[C@H](NC(=O)c3cnc4c(c3O)C(=O)CCC4)c3ccc(O)cc3)C2SC1 (single isomer, unassigned) [Synthesis Example 1] 3.13

Look up and report MIC, with Staphylococcus aureus (Y-8) as system, for Cc1nnc(SCC2=C(C(=O)O)N3C(=O)[C@@H](NC(=O)Cn4cnnn4)[C@H]3SC2)s1 [CEZ] 0.78

----------
- Test system: Pseudomonas aeruginosa (NCTC 7244)
- assayProtocol: Minimum bactericidal concentration (Referential Example 2, Table 2)
- Format: cell-based
- assayContext: NCTC7244, 18 h, 10^7 cells/ml inoculated, subculture on HIA medium
- Method: The compounds obtained in Synthesis Examples 1 to 4 were tested in the following manner. […] The growth of the bacterial strain was evaluated.
observationType: MBC

Query MBC for Cc1nnc(SCC2=C(C(=O)O)N3C(=O)C(NC(=O)[C@H](NC(=O)c4cnc5c(c4O)C(=O)CCC5)c4ccc(O)cc4)C3SC2)s1 (single isomer, unassigned) [Synthesis Example 2] > 200 µg/mL

Query MBC for "Cc1nnc(SCC2=C(C(=O)O)N3C(=O)[C@@H](NC(=O)Cn4cnnn4)[C@H]3SC2)s1" > 200 µg/mL

Query MBC for CC1(C)S[C@@H]2[C@H](NC(=O)C(C(=O)O)c3ccccc3)C(=O)N2[C@H]1C(=O)O (stereo partly drawn) [CB-PC, disodium-α-carboxybenzyl penicillin] > 200 µg/mL

Query MBC for CC(=O)OCC1=C(C(=O)O)N2C(=O)C(NC(=O)[C@H](NC(=O)c3cnc4c(c3O)C(=O)CCC4)c3ccc(O)cc3)C2SC1 (single isomer, unassigned) [Synthesis Example 1] > 200 µg/mL

----------
For each of the compounds below, state its concentration at 0.5 h.
- assayProtocol: Blood level in rats after intramuscular administration (Experimental Example 1, Table 3)
- Assay type: in vivo
- assayContext: rat, im, 20 mg/kg i.m., serum, 30 minutes, read-out: Blood level after administration (average value ± standard deviation)
Give the number; ng/mL is assumed, so skip it.

Query concentration at 0.5 h for CC(=O)OCC1=C(C(=O)O)N2C(=O)C(NC(=O)[C@H](NC(=O)c3cnc4c(c3O)C(=O)CCC4)c3ccc(O)cc3)C2SC1 (single isomer, unassigned) [Synthesis Example 1] 9800

Query concentration at 0.5 h for Cc1nnc(SCC2=C(C(=O)O)N3C(=O)C(NC(=O)[C@H](NC(=O)c4cnc5c(c4O)C(=O)CCC5)c4ccc(O)cc4)C3SC2)s1 (single isomer, unassigned) [Synthesis Example 2] 16100

----------
- System: Shigella flexneri (K-A)
- assayProtocol: MIC, agar plate dilution (Referential Example 1, Table 1)
- Assay type: cell-based
- assayContext: HIA medium plate, 37° C., 18 hours, read-out: Minimum growth inhibitory concentration (MIC)
For each of the molecules below, state its MIC.
Give the number; µg/mL is assumed, so skip it.

Query MIC for Cc1nnc(SCC2=C(C(=O)O)N3C(=O)C(NC(=O)[C@H](NC(=O)c4cnc5c(c4O)C(=O)CCC5)c4ccc(O)cc4)C3SC2)s1 (single isomer, unassigned) [Synthesis Example 2] 0.2

Query MIC for CC(=O)OCC1=C(C(=O)O)N2C(=O)C(NC(=O)[C@H](NC(=O)c3cnc4c(c3O)C(=O)CCC4)c3ccc(O)cc3)C2SC1 (single isomer, unassigned) [Synthesis Example 1] 0.39

Query MIC for Cc1nnc(SCC2=C(C(=O)O)N3C(=O)[C@@H](NC(=O)Cn4cnnn4)[C@H]3SC2)s1 [CEZ] 1.56

Query MIC for CC1(C)S[C@@H]2[C@H](NC(=O)C(C(=O)O)c3ccccc3)C(=O)N2[C@H]1C(=O)O (stereo partly drawn) [CB-PC, disodium-α-carboxybenzyl penicillin] 1.56

----------
# MIC per entry for Serratia marcescens (S-33)
Give the number; µg/mL is assumed, so skip it.

Look up and report MIC, with Serratia marcescens (S-33) as system, for Cc1nnc(SCC2=C(C(=O)O)N3C(=O)C(NC(=O)[C@H](NC(=O)c4cnc5c(c4O)C(=O)CCC5)c4ccc(O)cc4)C3SC2)s1 (single isomer, unassigned) [Synthesis Example 2] 12.5

Look up and report MIC, with Serratia marcescens (S-33) as system, for CC1(C)S[C@@H]2[C@H](NC(=O)C(C(=O)O)c3ccccc3)C(=O)N2[C@H]1C(=O)O (stereo partly drawn) [CB-PC, disodium-α-carboxybenzyl penicillin] 6.25

Look up and report MIC, with Serratia marcescens (S-33) as system, for CC(=O)OCC1=C(C(=O)O)N2C(=O)C(NC(=O)[C@H](NC(=O)c3cnc4c(c3O)C(=O)CCC4)c3ccc(O)cc3)C2SC1 (single isomer, unassigned) [Synthesis Example 1] 25

----------
- assayProtocol: Blood level in rats after intramuscular administration (Experimental Example 1, Table 3)
- Assay type: in vivo
- assayContext: rat, im, 20 mg/kg i.m., serum, 60 minutes, read-out: Blood level after administration (average value ± standard deviation)
observationType: concentration at 1 h (ng/mL)
Give the number; ng/mL is assumed, so skip it.

Query concentration at 1 h for Cc1nnc(SCC2=C(C(=O)O)N3C(=O)C(NC(=O)[C@H](NC(=O)c4cnc5c(c4O)C(=O)CCC5)c4ccc(O)cc4)C3SC2)s1 (single isomer, unassigned) [Synthesis Example 2] 7600

Query concentration at 1 h for CC(=O)OCC1=C(C(=O)O)N2C(=O)C(NC(=O)[C@H](NC(=O)c3cnc4c(c3O)C(=O)CCC4)c3ccc(O)cc3)C2SC1 (single isomer, unassigned) [Synthesis Example 1] 6800

Source of measurements: patent US4296112A
